Test system: HIV-1 integrase (with human LEDGF/p75)
ASSAY PROTOCOL: blockers of LEDGF/p75-dependent integrase strand transfer – biochemical, TR-FRET, high throughput, primary screen (AID 743269);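 note: signal is the Cy5 over europium emission ratio at 671 and 618 nm; 0% = plate median of compound wells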
STATED CONDITIONS: TR-FRET IN-LEDGF/p75 DNA integration, Eu/Cy5; at 3.7 µM; stronger effect = higher value
Hit rate of the full screen: of about 370,000 compounds, about 2,400 (0.65%) were called active. The sample as a whole holds a higher share of actives than the screen did.
Reported values of inhibition for individual entries

MOLECULE | TARGET OR SYSTEM | inhibition, %
CN(C)c1ccc(NC(=O)NC2CCCCN(Cc3ccc(Cl)cc3)C2=O)cc1 (stereo not given) | HIV-1 integrase (with human LEDGF/p75) | 6.63
Cc1cc(=O)n2[nH]c(-c3sccc3-n3c(C)ccc3C)cc2n1 | HIV-1 integrase (with human LEDGF/p75) | 55.6
CCOC(=O)C(=O)N(Cc1ccccc1)c1ccccc1C(=O)Nc1cc(OC)ccc1OC | HIV-1 integrase (with human LEDGF/p75) | 0.37
CCOc1ccc(NC(=O)c2cccc3c2C(=O)N(CC2CCCO2)C3)cc1 (stereo not given) | HIV-1 integrase (with human LEDGF/p75) | 0.61
COc1ccc(S[C@]2(C(=O)N(C)C)CC(=O)N(c3ccc(OC)cc3)[C@@H]2c2ccc(OC)cc2)cc1 | HIV-1 integrase (with human LEDGF/p75) | 2.73

* * *

System: HIV-1 integrase (with human LEDGF/p75)
ASSAY PROTOCOL: blockers of LEDGF/p75-dependent integrase strand transfer – biochemical, TR-FRET, high throughput, primary screen (AID 743269)
STATED CONDITIONS: TR-FRET IN-LEDGF/p75 DNA integration, Eu/Cy5; at 3.7 µM; stronger effect = higher value
The campaign covered roughly 370,000 compounds. About 2,400 (0.65%) were called active. Many of the other results were omitted from the sample, so actives are more common in it than they were.
Use 9% as the dividing line for inhibition, with the line itself on the T side and lower values as F.

SMILES NOTATION | LABEL VALUE
Oc1c(C=Nc2cccc3nsnc23)ccc2ccccc12 | T
CCC[C@H]1C(=O)CC[C@@]23CCCN2C(=O)CCC[C@@H]13 | F
CC(C)(C)OC(=O)NCc1cc(F)ccc1/C=C/S(=O)(=O)NCCc1ccccc1 | F
COC(=O)[C@]12C[C@H](CC(=O)NCc3cccc4ccccc34)C(=O)N(CCc3ccc(OC)c(OC)c3)C1=C[C@H](C1CCCC1)O[C@@H]2C | F

* * *

Tested on: HIV-1 integrase (with human LEDGF/p75)
ASSAY PROTOCOL: blockers of LEDGF/p75-dependent integrase strand transfer – biochemical, TR-FRET, high throughput, primary screen (AID 743269);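 note: signal is the Cy5 over europium emission ratio at 671 and 618 nm; 0% = plate median of compound wells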
STATED CONDITIONS: TR-FRET IN-LEDGF/p75 DNA integration, Eu/Cy5; at 3.7 µM
Out of some 370,000 compounds screened, about 2,400 (0.65%) were called active.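 Rule for the calls: active = inhibition above the screen-wide mean plus 3 SD (cut at about 13% in these data); inactive = the rest.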 For the sample, actives were picked, then their nearest neighbours and some compounds at random.
Outcomes: TRUE = active, FALSE = inactive

COMPOUND | LABEL VALUE
COc1ccc(CNC(=O)C(C)NCc2ccccc2Cl)cc1 (stereo not given) | FALSE
Cn1c(SCC(=O)N2CCCC2)nnc1-c1ccc2c(c1)OCO2 | FALSE
NC1=CC(=O)C(=O)c2cccnc21 | TRUE
CCOC(=O)N1CCN(C(=O)C[C@@H]2C(=O)N(CCc3ccc(Cl)cc3)C3=CCCC[C@]32C(=O)OCC)CC1 | FALSE
Cc1sc2ncnc(SCC(=O)Nc3ccc(CN4CCCC4)cc3)c2c1C | FALSE
COc1ccc(NC(=O)C(NC(C)=O)C(=O)NCc2ccccc2Cl)cc1 (stereo not given) | TRUE
Cc1cc(NS(=O)(=O)c2ccc(NC(=O)CSc3nnc(SCc4ccc(F)cc4)s3)cc2)nc(C)n1 | FALSE
O=C(O)c1ccc(NN=CC2=C(N3CCOCC3)/C(=C/c3ccccc3)CC2)cc1 | TRUE
COc1ccc(CSc2nnc(-c3cccc(C)c3)n2C)cc1 | FALSE
O=C1C(=O)N(Cc2ccc(-c3ccsc3)cc2)c2ccc(OC(F)(F)F)cc21 | FALSE

* * *

Reported values of inhibition for individual entries
System: HIV-1 integrase (with human LEDGF/p75)
ASSAY PROTOCOL: blockers of LEDGF/p75-dependent integrase strand transfer – biochemical, TR-FRET, high throughput, primary screen (AID 743269);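 note: signal is the Cy5 over europium emission ratio at 671 and 618 nm; 0% = plate median of compound wells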
STATED CONDITIONS: TR-FRET IN-LEDGF/p75 DNA integration, Eu/Cy5; at 3.7 µM; stronger effect = higher value
The whole screen tested about 370,000 compounds, of which about 2,400 (0.65%) were called active. Only a selection was taken, and actives are over-represented in it overall.

COMPOUND | ENDPOINT UNIT | inhibition
COC(=O)c1cc(S(=O)(=O)N2CCN(C(=O)C3CCCO3)CC2)cn1C (centres undefined) | % | 8.59
C[C@@H]1CN([C@@H](C)CO)C(=O)c2cccc(NC(=O)Nc3cccc4ccccc34)c2O[C@H]1CN(C)S(=O)(=O)c1ccccc1F | % | 3.05
Cc1cc(C)n2ncc(C(=O)Nc3ccc4c(c3)OCCO4)c2n1 | % | 1.44
O=C(NCc1ccccn1)c1cnc2sccn2c1=O | % | 3.23
O=c1ccc2c(-c3ccccc3S(=O)(=O)O)c3ccc(O)c(O)c3oc-2c1O | % | 84
O=C(Nc1nc2ccc(Cl)cc2s1)c1cc(-c2ccc(Cl)cc2)nc2ccccc12 | % | 6.18
O=C(Nc1nnc(-c2ccco2)o1)c1ccc(S(=O)(=O)N2CCOCC2)cc1 | % | 27
C#CCNC(=O)C[C@H]1C[C@@]2(C(=O)OC)C(=C[C@H](C(C)C)O[C@@H]2C2CC2)N(Cc2ccco2)C1=O | % | 0.25
COc1ccccc1CCNC(=O)C1CCN(c2nc(C)cc(C)n2)CC1 | % | -0.51
COc1ccccc1/C=C/C1=NC(=C\N(C)C)/C(=O)O1 | % | -2.48
COc1cc(-c2nnc(NC(=O)CS(=O)(=O)c3ccc(Cl)cc3)o2)cc(OC)c1OC | % | 15.4
NS(=O)(=O)c1cccc(NC(=O)COC(=O)/C=C/c2ccco2)c1 | % | -1.8
O=C1OC(/C=C/c2ccccc2)=NC/1=C/c1ccco1 | % | 23.8
COc1ccc(C(=O)CSc2n[nH]c(N)n2)cc1 | % | -3.51

* * *

Test system: HIV-1 integrase (with human LEDGF/p75)
ASSAY PROTOCOL: blockers of LEDGF/p75-dependent integrase strand transfer – biochemical, TR-FRET, high throughput, primary screen (AID 743269);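 note: signal is the Cy5 over europium emission ratio at 671 and 618 nm; 0% = plate median of compound wells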
STATED CONDITIONS: TR-FRET IN-LEDGF/p75 DNA integration, Eu/Cy5; at 3.7 µM; stronger effect = higher value
Out of some 370,000 compounds screened, about 2,400 (0.65%) were called active. For the sample, actives were picked, then their nearest neighbours and some compounds at random.
MEASURED ENDPOINT: inhibition

COMPOUND | TARGET OR SYSTEM | MEASURED ENDPOINT | EXPERIMENTAL RESULT
COc1ccc(OC)c(NC(=O)CSc2nc(-c3ccccc3)cc(=O)[nH]2)c1 | HIV-1 integrase (with human LEDGF/p75) | inhibition | 2.74% (inactive)
Cc1cc(=O)oc2c3c(cc(OCC(=O)N[C@H](C(=O)O)c4ccccc4)c12)OC(C)(C)CC3 | HIV-1 integrase (with human LEDGF/p75) | inhibition | 18.2% (active)
c1coc(CCNc2ncnc3ccc(-c4ccc5c(c4)OCO5)cc23)c1 | HIV-1 integrase (with human LEDGF/p75) | inhibition | 2.41% (inactive)
Cn1ccc(=Nc2ccc(NC(=O)c3ccc(N=c4ccn(C)c5ccc([N+](=O)[O-])cc45)cc3)cc2)cc1 | HIV-1 integrase (with human LEDGF/p75) | inhibition | 19.9% (active)
CCN(C(=O)COC(=O)CCC(=O)c1cccs1)C1CCCCC1 | HIV-1 integrase (with human LEDGF/p75) | inhibition | 9.09% (inactive)
O=C(NCc1cccs1)C1CCCN(S(=O)(=O)c2ccc([N+](=O)[O-])cc2)C1 (stereo not given) | HIV-1 integrase (with human LEDGF/p75) | inhibition | 4.07% (inactive)
COC(=O)C[C@H]1CC[C@H]2[C@H](COc3ccc(NC(=O)C4CC4)cc3C(=O)N2C)O1 | HIV-1 integrase (with human LEDGF/p75) | inhibition | 2.4% (inactive)
O=C(NCc1cccs1)C1CCN(S(=O)(=O)c2ccccc2[N+](=O)[O-])CC1 | HIV-1 integrase (with human LEDGF/p75) | inhibition | 3.07% (inactive)
O=C1C=CC(=O)N1c1ccc(N2CCCCC2)cc1 | HIV-1 integrase (with human LEDGF/p75) | inhibition | 14.3% (active)
CCOC(=O)[C@]12CCCC3=C1N(CCC3)C(=O)[C@@H](CC(=O)NCc1cccs1)C2 | HIV-1 integrase (with human LEDGF/p75) | inhibition | -1.84% (inactive)
CC(=O)Nc1ccc(C(=O)OCC(=O)Nc2ccc([N+](=O)[O-])cc2C(F)(F)F)cc1 | HIV-1 integrase (with human LEDGF/p75) | inhibition | 1.78% (inactive)
CC(C)(C)C1C/C(=C/c2ccco2)C(=O)/C(=C/c2ccco2)C1 (stereo not given) | HIV-1 integrase (with human LEDGF/p75) | inhibition | 79.5% (active)
COCCCNC(=O)C[C@H]1C[C@@]2(C(=O)OC)C(=C[C@H](C(C)(C)C)O[C@@H]2C)N(Cc2ccc(Cl)cc2Cl)C1=O | HIV-1 integrase (with human LEDGF/p75) | inhibition | 2.76% (inactive)
O=C(NCC1COc2ccccc2O1)c1ccc(NC(=O)c2cc(F)ccc2F)cc1 (stereo not given) | HIV-1 integrase (with human LEDGF/p75) | inhibition | -2.1% (inactive)
CCc1cc2cc(OC)ccc2nc1SCC(=O)Nc1cc(OC)c(OC)cc1C(=O)O | HIV-1 integrase (with human LEDGF/p75) | inhibition | 17.2% (active)
